Quick reference: pIC50 of the listed items.
target: human Cot/Tpl2 kinase (Homo sapiens, UniProt P41279); construct: human Cot/Tpl2 kinase construct encoding residues 30-398; 6His (N); made in house; host or cells: Sf9 insect cells, baculovirus system (BD Biosciences); experiment: Tpl2/Cot kinase assay: GST-MEK1 phosphorylation detected by ELISA (DELFIA Eu); format: biochemical; conditions: 0.4 nM Tpl2, 35 nM GST-MEK1, 50 uM ATP, 1 h at 30° C.
Sequence (P41279 30-398): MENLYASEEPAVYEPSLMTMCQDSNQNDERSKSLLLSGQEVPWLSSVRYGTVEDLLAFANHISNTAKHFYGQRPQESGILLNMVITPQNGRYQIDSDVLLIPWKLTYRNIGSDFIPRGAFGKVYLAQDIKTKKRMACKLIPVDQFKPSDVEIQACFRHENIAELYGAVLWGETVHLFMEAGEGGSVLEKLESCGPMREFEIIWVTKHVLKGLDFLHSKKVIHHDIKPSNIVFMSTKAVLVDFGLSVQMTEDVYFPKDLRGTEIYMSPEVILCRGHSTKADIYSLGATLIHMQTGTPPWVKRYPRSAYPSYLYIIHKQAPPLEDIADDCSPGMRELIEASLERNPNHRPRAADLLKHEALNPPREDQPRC
pIC50: −log10 of the molar value.

compound	comparisonOperator	pIC50
Cn1ccnc1CNc1ccc2ncc(C#N)c(Nc3ccc(F)c(Cl)c3)c2c1 [Example 171]	=	7.85
N#Cc1cnc2ccc(NCc3ccco3)cc2c1Nc1ccc(F)c(Cl)c1 [Example 3]	=	6.62
N#Cc1cnc2c(Cl)cc(NCc3cn4ccccc4n3)cc2c1Nc1ccc(F)c(Cl)c1 [Example 187]	=	6.89
Cc1nn(C)c(Cl)c1CNc1ccc2ncc(C#N)c(Nc3ccc(F)c(Cl)c3)c2c1 [Example 132]	=	4.76
COc1cc(NCc2cccnc2)cc2c(Nc3ccc(C)c(O)c3)c(C#N)cnc12 [Example 32]	<	4.40
COc1ncc(CNc2cc(C(F)(F)F)c3ncc(C#N)c(Nc4ccc(F)c(Cl)c4)c3c2)c(OC)n1 [Example 241]	<	4.40
N#Cc1cnc2ccc(NCc3c[nH]c(=O)[nH]c3=O)cc2c1Nc1ccc(F)c(Cl)c1 [Example 228]	=	6.32
N#Cc1cnc2c(Br)cc(NCc3nn[nH]c3-c3ccc(F)cc3)cc2c1Nc1ccc(F)c(Cl)c1 [Example 170]	=	6.17
CC(Nc1ccc2ncc(C#N)c(Nc3ccc(F)c(Cl)c3)c2c1)c1ccccn1 (stereo not shown) [Example 127]	=	7.19
N#Cc1cnc2c(Br)cc(NCc3cn(CCN4CCOCC4)nn3)cc2c1Nc1ccc(F)c(Cl)c1 [Example 297]	=	7.54
CC(Nc1ccc2ncc(C#N)c(Nc3ccc(F)c(Cl)c3)c2c1)c1cnc[nH]1 (stereo not shown) [Example 179]	=	5.41
N#Cc1cnc2c(C(F)(F)F)cc(NCc3cnc(N4CCOCC4)s3)cc2c1Nc1ccc(F)c(Cl)c1 [Example 244]	<	4.40
N#Cc1cnc2c(C(F)(F)F)cc(NCc3cncnc3)cc2c1Nc1ccc(F)c(Cl)c1 [Example 240]	=	6.72
COc1cc(NCCN2CCOCC2)cc2c(Nc3ccc(F)c(Cl)c3)c(C#N)cnc12 [Example 29]	=	5.28
N#Cc1cnc2c(Br)cc(NCc3csnn3)cc2c1Nc1ccc(F)c(Cl)c1 [Example 302]	=	7.68
N#Cc1cnc2c(Cl)cc(NCc3cn(CS(=O)(=O)N4CCOCC4)nn3)cc2c1Nc1ccc(F)c(Cl)c1 [Example 224]	=	6.55

---

molecular target: human Cot/Tpl2 kinase (Homo sapiens, UniProt P41279); construct: human Cot/Tpl2 kinase construct encoding residues 30-398; 6His (N); made in house; host or cells: Sf9 insect cells, baculovirus system (BD Biosciences); experiment: Tpl2/Cot kinase assay: GST-MEK1 phosphorylation detected by ELISA (DELFIA Eu); format: biochemical; settings: Tpl2/Cot kinase, GST-MEK1 substrate, 50 uM ATP, 1 h at 30° C.; Table 2
pIC50: −log10 of the molar value.
Kindly return Criterion met if reported pIC50 is no lower than 6; return Criterion not met if it is lower.

compound	experimentalSystem	discreteLabel
CC(C)(C)OC(=O)N1CCN(CCn2cc(CNc3cc(Cl)c4ncc(C#N)c(Nc5ccc(F)c(Cl)c5)c4c3)nn2)CC1 [Example 957]	human Cot/Tpl2 kinase (Homo sapiens, UniProt P41279)	Criterion not met
C[C@H](CNc1ccccn1)Nc1cc(Cl)c2ncc(C#N)c(Nc3ccc(F)c(Cl)c3)c2c1 [Example 933]	human Cot/Tpl2 kinase (Homo sapiens, UniProt P41279)	Criterion not met
N#Cc1cnc2c(Cl)cc(NCc3cn(C4CCN(CC(F)(F)C(F)F)CC4)nn3)cc2c1Nc1ccc(F)c(Cl)c1 [Example 1018]	human Cot/Tpl2 kinase (Homo sapiens, UniProt P41279)	Criterion met
CN1CCCC1CCn1cc(CNc2cc(Cl)c3ncc(C#N)c(NC4CCC5(CCCCC5)CC4)c3c2)nn1 (stereo not shown) [Example 971]	human Cot/Tpl2 kinase (Homo sapiens, UniProt P41279)	Criterion not met
N#Cc1cnc2c(Cl)cc(NCc3cn(C4CCN(CC5CC5)CC4)nn3)cc2c1Nc1ccc(F)c(Cl)c1 [Example 1027]	human Cot/Tpl2 kinase (Homo sapiens, UniProt P41279)	Criterion met
